System: E. coli TESEC Mtb Asd
Measurement Protocol: growth (OD600 after 10 h); higher = more growth (less inhibition)
Condition: arabinose induction (level): Low; compound 0.1 mM; raw OD600 reference: median of DMSO wells 0.417, cell-free background 0.041
Where a name gives a salt, the structure may show the parent alone.
Parameter threshold = 0.3. Response is MET when growth meets or exceeds it, else NOT MET.

These solved cases illustrate the format of a correct answer.
Confirm if growth reported for the molecule COC(=O)C1=C(C)NC(C)=C(C(=O)OCC(C)C)C1c1ccccc1[N+](=O)[O-] (centres undefined) is 0.3 or above.
NOT MET

# repeat for CNC(=C[N+](=O)[O-])NCCSCc1csc(CN(C)C)n1
MET

# repeat for CCN1CCCC1CNC(=O)c1cc(S(=O)(=O)CC)c(N)cc1OC (centres undefined) [Amisulpride]
MET

# repeat for CN1CCC(=C2c3ccccc3C=Cc3ccccc32)CC1 [Cyproheptadine hydrochloride]
NOT MET

# repeat for CCN(CC)C(=O)C1(c2ccccc2)CC1CN (centres undefined) [Milnacipran hydrochloride]
MET

# repeat for CCN1CCC[C@H]1CNC(=O)c1c(O)c(Cl)cc(Cl)c1OC [Raclopride]
NOT MET

Others:
Confirm if growth reported for the molecule Cc1cn([C@H]2C=C[C@@H](CO)O2)c(=O)[nH]c1=O is 0.3 or above.
NOT MET

Cited source: the supplement of paper PMC9262897
